target: Acetylcholinesterase (Electrophorus electricus, UniProt O42275)
Sequence (O42275 whole entry): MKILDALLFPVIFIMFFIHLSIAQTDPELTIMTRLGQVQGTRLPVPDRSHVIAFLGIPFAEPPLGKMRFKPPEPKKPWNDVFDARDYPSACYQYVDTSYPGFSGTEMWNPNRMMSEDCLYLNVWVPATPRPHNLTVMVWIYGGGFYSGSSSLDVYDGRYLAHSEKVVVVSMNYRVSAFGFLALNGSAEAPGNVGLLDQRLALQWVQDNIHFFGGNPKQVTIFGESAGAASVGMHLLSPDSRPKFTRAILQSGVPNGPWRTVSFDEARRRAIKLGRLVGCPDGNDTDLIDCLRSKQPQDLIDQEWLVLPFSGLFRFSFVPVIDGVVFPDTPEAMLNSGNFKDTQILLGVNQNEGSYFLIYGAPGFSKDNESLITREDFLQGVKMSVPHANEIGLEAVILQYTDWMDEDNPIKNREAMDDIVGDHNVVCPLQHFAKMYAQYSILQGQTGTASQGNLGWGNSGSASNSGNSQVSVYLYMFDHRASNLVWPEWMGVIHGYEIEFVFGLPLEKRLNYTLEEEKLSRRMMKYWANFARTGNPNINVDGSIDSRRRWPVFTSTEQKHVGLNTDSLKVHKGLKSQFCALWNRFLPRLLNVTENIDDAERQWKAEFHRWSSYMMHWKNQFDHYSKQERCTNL
assay_metric: Ki (µM)
// note: answer is a bare numeric in µM

Incoming: Bench note: what Ki did CC(=O)Nc1nn(C)c2nc3nc4c(c(N)c3cc12)CCCC4 show?
Outgoing: 0.155

###

We begin with a simple list: items and their reported pIC50.
target: Cholinesterase (Equus caballus)
Sequence (P81908 whole entry): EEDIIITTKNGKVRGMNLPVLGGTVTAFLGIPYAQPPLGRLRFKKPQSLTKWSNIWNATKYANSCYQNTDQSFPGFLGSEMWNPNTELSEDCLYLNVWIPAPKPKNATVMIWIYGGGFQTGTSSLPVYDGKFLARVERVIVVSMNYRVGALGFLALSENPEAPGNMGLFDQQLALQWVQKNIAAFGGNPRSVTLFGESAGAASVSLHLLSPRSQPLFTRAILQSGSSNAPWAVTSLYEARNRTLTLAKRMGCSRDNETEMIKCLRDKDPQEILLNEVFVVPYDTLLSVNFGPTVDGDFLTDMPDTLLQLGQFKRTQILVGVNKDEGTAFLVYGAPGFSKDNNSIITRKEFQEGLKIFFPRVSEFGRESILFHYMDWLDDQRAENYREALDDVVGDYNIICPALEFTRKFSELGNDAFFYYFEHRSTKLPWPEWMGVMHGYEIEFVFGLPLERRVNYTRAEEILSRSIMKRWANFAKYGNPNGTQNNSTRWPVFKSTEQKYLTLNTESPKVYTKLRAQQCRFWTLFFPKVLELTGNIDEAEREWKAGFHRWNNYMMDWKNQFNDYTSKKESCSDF
// pIC50: -log10(molar conc.)

Example cases with answers are listed next.
CC(=O)Nc1nn(C)c2nc3nc4c(c(N)c3cc12)CCCC4 ... 5.20
Cn1nc(C#N)c2c(N)c3c(nc21)CCCC3 ... 5.20
Cn1nc2nc3c(c(N)c2c1C(N)=O)CCCC3 ... 5.27
CC(=O)Nc1nn(C)c2nc3nc4c(c(N)c3c(-c3ccccc3)c12)CCCC4 ... 5.05

Now for a further compound.
Incoming: Find the recorded pIC50 belonging to Cn1nc2nc3c(c(N)c2c1C#N)CCCC3 and report it.
Outgoing: 4.00

// data source = ChEMBL document CHEMBL2034963
